Molecular target: AchR (Homo sapiens)
Sequence (P02708 21-457): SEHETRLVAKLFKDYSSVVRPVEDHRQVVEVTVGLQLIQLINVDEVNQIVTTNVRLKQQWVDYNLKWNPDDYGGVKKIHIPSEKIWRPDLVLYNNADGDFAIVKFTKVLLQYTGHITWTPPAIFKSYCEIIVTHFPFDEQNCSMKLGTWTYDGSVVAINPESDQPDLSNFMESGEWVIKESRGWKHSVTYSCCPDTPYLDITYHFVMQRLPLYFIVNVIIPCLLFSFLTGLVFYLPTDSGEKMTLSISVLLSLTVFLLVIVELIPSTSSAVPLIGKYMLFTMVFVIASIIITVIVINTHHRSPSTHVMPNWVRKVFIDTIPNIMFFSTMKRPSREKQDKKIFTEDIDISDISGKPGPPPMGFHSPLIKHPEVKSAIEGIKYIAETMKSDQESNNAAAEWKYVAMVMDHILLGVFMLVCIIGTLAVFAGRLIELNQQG
Assay: ELISA of screened peptide phages on AchR versus streptavidin (OD450)
Type: binding
Details: ELISA of selected 14-mer (L3) peptide phages on AchR, absorbance at 450 nm; Spep-2 positive control
assay.readout: OD
Answers are plain numbers.

Your task in this section: give OD for each listed record.
1. L3-143 (QTMKFKRCCNKEMV; AchR binding peptide) [Peptide L3-143]
2. L3-138 (TNQRPRRETAKTIE; AchR binding peptide) [Peptide L3-138]
3. L3-80 (MEGREKKSYNKGEN; AchR binding peptide) [Peptide L3-80]
4. L3-128 (IVNRAKRSQIRFDV; AchR binding peptide) [Peptide L3-128]
5. L3-168 (MGLRARKYEDKTLH; AchR binding peptide) [Peptide L3-168]
6. L3-1 (ALGRTKRLHMRVHV; AchR binding peptide) [Peptide L3-1]
7. L3-129 (IHPRYKRHQARSCC; AchR binding peptide) [Peptide L3-129]

## Output
1: 0.559; 2: 0.576; 3: 0.589; 4: 0.523; 5: 0.775; 6: 0.853; 7: 0.606

Provenance of the data: patent US20260000597A1
